For each record, write down the corresponding Human Microsomal Clearance.
- assaySummary: Human microsomal metabolic stability
- Assay type: in vitro ADME
- conditions: human microsomes 0.5 mg/mL, 1 μM test compound, NADPH, 37° C., pH 7.4, 0-30 minutes
Write the number in mL/min/kg without appending the unit.

Please fill in: Human Microsomal Clearance reported for CCOC(=O)C1=C(CN2CCN3C(=O)N(C)C[C@H]3[C@@H]2C(=O)O)NC(c2nccs2)=N[C@H]1c1cccc(F)c1Cl (single isomer, unassigned) [Example 91B] = 5.8

Entry COC(=O)C1=C(CN2CCN3C(=O)N(C(C)(C)CC(=O)O)C[C@@H]3C2)NC(c2nccs2)=N[C@H]1c1ccc(F)cc1Cl [Example 33] — recorded Human Microsomal Clearance = 2.5

Summary for this compound, COC(=O)C1=C(CN2CCN3C(=O)N(C(C)(C)C)C[C@@H]3[C@H]2C(=O)O)NC(c2nccs2)=N[C@H]1c1ccc(F)cc1Cl (single isomer, unassigned) [Example 86B] : Human Microsomal Clearance is 4.7

---

- System: HepDE19 cells
- assaySummary: Cytotoxicity in HepDE19 cells (CCK-8) and selectivity index
- Assay type: cell-based
- conditions: HepDE19 cells; CCK-8 cell viability; five days after treatment
readoutLabel: CC50
Please answer in the form of a number followed by its unit of measurement.

Per the record, CCOC(=O)C1=C(CN2CCN3C(=O)N(C4CCC(C(=O)O)C4)C[C@@H]3C2)NC(c2nccs2)=N[C@H]1c1cccc(F)c1Cl (mixture of isomers) has CC50 of 67 µM

// CC50 value for COC(=O)C1=C(CN2CCN3C(=O)N(C4CCC(C(=O)O)C4)C[C@@H]3C2)NC(c2nccs2)=N[C@H]1c1ccc(F)cc1Cl (mixture of isomers) : 91 µM

---

- System: HepDE19 cells
- assaySummary: Cytotoxicity in HepDE19 cells (CCK-8) and selectivity index
- Type: cell-based
- conditions: CC50 (HepDE19) value / EC50 (HepG2.2.15) value
Provide the recorded Selectivity index (CC50/EC50) for the entries that follow.

# Selectivity index (CC50/EC50) (compound: CCOC(=O)C1=C(CN2CCN3C(=O)N(CC(C)(C)C(=O)O)C[C@@H]3C2)NC(c2nccs2)=N[C@H]1c1cccc(F)c1C [Example 76] ) is >14286

Sample CCOC(=O)C1=C(CN2CCN3C(=O)N(CC(C)C(=O)O)C[C@@H]3C2)NC(c2nccs2)=N[C@H]1c1cccc(F)c1Cl (some centres unmarked) [Example 21] ; Selectivity index (CC50/EC50) observed: >6211

// Selectivity index (CC50/EC50) lookup, compound = CCOC(=O)C1=C(CN2CCN3C(=O)N(CC4CC(C(=O)O)C4)C[C@@H]3C2)NC(c2nccs2)=N[C@H]1c1cccc(F)c1Cl (some centres unmarked) [Example 81] , result: 8500

According to the records, this compound CCOC(=O)C1=C(CN2CCN3C(=O)N(CC4(C(=O)O)CCC4)C[C@@H]3C2)NC(c2nccs2)=N[C@H]1c1cccc(F)c1Cl [Example 60] displays Selectivity index (CC50/EC50) of 11333

// Selectivity index (CC50/EC50) value for CCOC(=O)C1=C(CN2CCN3C(=O)N(CC4CC4)C[C@@H]3[C@H]2C(=O)O)NC(c2nccs2)=N[C@H]1c1cccc(F)c1Cl (single isomer, unassigned) [Example 97B] : >100000

Record CCOC(=O)C1=C(CN2CCN3C(=O)N(C(C)(C)C)C[C@@H]3[C@H]2C(=O)O)NC(c2nccs2)=N[C@H]1c1cccc(F)c1Cl (single isomer, unassigned) [Example 87B] . Reported Selectivity index (CC50/EC50): >100000

Value of Selectivity index (CC50/EC50) reported for the compound CCOC(=O)C1=C(CN2CCN3C(=O)N(CC(C)C)C[C@@H]3[C@H]2C(=O)O)NC(c2nccs2)=N[C@H]1c1cccc(F)c1Cl (single isomer, unassigned) [Example 101B] is >100000

For CCOC(=O)C1=C(CN2CCN3C(=O)N(CC(C)(C)C(=O)O)C[C@@H]3C2)NC(c2nc(C)cs2)=N[C@H]1c1cccc(F)c1Cl [Example 98] the compound record lists Selectivity index (CC50/EC50) as 6636

For reference, reported Selectivity index (CC50/EC50) for COC(=O)C1=C(CN2CCN3C(=O)N(C4CCC(C(=O)O)C4)C[C@@H]3C2)NC(c2nccs2)=N[C@H]1c1ccc(F)cc1Cl (mixture of isomers) [Example 63] stands at 7583

Recorded Selectivity index (CC50/EC50) (compound CCOC(=O)C1=C(CN2CCN3C(=O)OC[C@@H]3[C@H]2C(=O)O)NC(c2nccs2)=N[C@H]1c1cccc(F)c1Cl (single isomer, unassigned) [Example 102B] ): >7142

Data point: COC(=O)C1=C(CN2CCN3C(=O)N(C(C)C)C[C@@H]3[C@H]2C(=O)O)NC(c2nccs2)=N[C@H]1c1ccc(F)c(F)c1C (single isomer, unassigned) [Example 85B] ; Selectivity index (CC50/EC50) = >16667
